Target: Polyunsaturated fatty acid lipoxygenase ALOX15 (Homo sapiens)
Assay: Inhibitors of 12-hLO (12-human lipoxygenase): 15hLO-1 Cuvette-Based Inhibition Counterscreen Assay for 12hLO Followup Compounds
Details: purified 15hLO-1, UV 234 nm product formation
Inconclusive results are not listed. Calls of active or inactive are those of the source. Calls follow the shape of the full dose curve.
Possible outcomes: YES (active), NO (inactive)

Compound | Subject Of Test | Group Label
CC1=NN(c2ccc(Cl)cc2)C(=O)C1C(c1cccc(O)c1)c1c(C)[nH]n(-c2ccc(Cl)cc2)c1=O (stereo not given) | Polyunsaturated fatty acid lipoxygenase ALOX15 (Homo sapiens) | YES
Cc1cc(Cl)cc(Cl)c1OCC(=O)NCc1ccco1 | Polyunsaturated fatty acid lipoxygenase ALOX15 (Homo sapiens) | YES
Cc1oc2c(O)c(O)ccc2c(=O)c1-c1cnn(-c2ccccc2)c1 | Polyunsaturated fatty acid lipoxygenase ALOX15 (Homo sapiens) | YES
Oc1ccc(-c2nc(-c3ccc(O)c(O)c3)cs2)cc1 | Polyunsaturated fatty acid lipoxygenase ALOX15 (Homo sapiens) | YES
CCOC(=O)CNC(c1ccccc1)c1cc(Br)ccc1NC(=O)CCN1CCOCC1 (stereo not given) | Polyunsaturated fatty acid lipoxygenase ALOX15 (Homo sapiens) | NO

---

Target: Polyunsaturated fatty acid lipoxygenase ALOX15 (Homo sapiens)
Experiment: Inhibitors of 12-hLO (12-human lipoxygenase): 15hLO-1 Cuvette-Based Inhibition Counterscreen Assay for 12hLO Followup Compounds
Conditions: purified 15hLO-1, UV 234 nm product formation
Experimental: Human lipoxygenase 15hLO-1 is a member of the closely related lipoxygenase family of enzymes which catalyze the site-specific oxidation of arachidonic acid to various hormone precursor molecules and as such is a candidate for drug development in a variety of disease areas, such as cancer and inflammation. The enzyme activity of 15hLO-1 was determined by a direct measurement of product formation by monitoring the absorbance at 234 nm in a 2 mL cuvette. […]
Inconclusive results are not listed. Active and inactive are the calls of the source. The call rests on the fitted dose curve.
Possible outcomes: active, inactive

Compound | Group Label
CCc1ccc(S(=O)(=O)/N=C2/C=C(Sc3ncn[nH]3)C(=O)c3ccccc32)cc1 | active
COc1ccc(-c2[nH]ncc2-c2ccc(Cl)cc2)c(O)c1 | active
Cc1[nH]nc(-c2ccc(O)cc2O)c1Oc1ccccc1 | active
N#CC1=C(N)Oc2n[nH]c(-c3cccs3)c2C1C1CCCCC1 (centres undefined) | active
CCc1cc(-c2n[nH]c(C)c2Oc2ccc(C(C)C)cc2)c(O)cc1O | active
CCOC(=O)Cc1cc(=O)n(-c2nc3ccccc3s2)[nH]1 | inactive
CCCOC(=O)c1ccc(Oc2c(-c3ccc(O)cc3O)n[nH]c2C)cc1 | active
Oc1ccccc1-c1cc(-c2ccc3c(c2)OCCO3)n[nH]1 | active
CCc1cc(-c2[nH]ncc2-c2ccc3c(c2)OCO3)c(O)cc1O | active

---

Molecular target: Polyunsaturated fatty acid lipoxygenase ALOX15 (Homo sapiens) (UniProt P16050)
Sequence (P16050 whole entry, looked up): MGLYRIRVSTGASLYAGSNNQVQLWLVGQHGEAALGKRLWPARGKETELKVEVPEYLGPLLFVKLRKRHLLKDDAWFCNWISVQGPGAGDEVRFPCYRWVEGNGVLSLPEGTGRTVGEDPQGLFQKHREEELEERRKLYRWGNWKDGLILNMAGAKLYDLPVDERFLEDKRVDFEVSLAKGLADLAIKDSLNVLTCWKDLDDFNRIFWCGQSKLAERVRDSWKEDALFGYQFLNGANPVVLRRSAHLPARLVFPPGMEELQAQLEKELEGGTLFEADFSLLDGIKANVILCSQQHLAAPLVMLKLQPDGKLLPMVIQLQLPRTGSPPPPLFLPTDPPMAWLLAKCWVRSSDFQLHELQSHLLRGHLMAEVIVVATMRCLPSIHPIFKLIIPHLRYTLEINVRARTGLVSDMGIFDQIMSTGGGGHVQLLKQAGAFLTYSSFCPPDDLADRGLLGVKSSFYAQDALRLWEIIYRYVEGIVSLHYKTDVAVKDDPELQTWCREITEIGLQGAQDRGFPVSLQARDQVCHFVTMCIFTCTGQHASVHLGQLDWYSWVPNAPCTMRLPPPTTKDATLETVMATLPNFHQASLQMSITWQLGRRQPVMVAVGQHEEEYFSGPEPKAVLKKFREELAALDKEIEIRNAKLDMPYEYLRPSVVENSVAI
Assay: Inhibitors of 12-hLO (12-human lipoxygenase): 15hLO-1 Cuvette-Based Inhibition Counterscreen Assay for 12hLO Followup Compounds
Conditions: purified 15hLO-1, UV 234 nm product formation
Records with an inconclusive call do not appear. Active and inactive are the calls of the source. The call rests on the fitted dose curve.
The entries below come with measured Potency values attached.
Quantity Kind: Potency

Smiles Record | Meas Value
Oc1ccc(-c2csc(-c3ccccc3)n2)cc1O | 0.67 µM (active)
O=S(=O)(Nc1ccc(O)c(Sc2nc3ccccc3s2)c1)c1ccc(Cl)cc1 | 12.6 µM (active)
COc1ccc(Cc2nc(C(=O)Nc3ccc(OC)cc3)cs2)cc1 | 8.84 µM (active)
Oc1ccccc1-c1cc(-c2ccccc2Cl)[nH]n1 | 1.62 µM (active)
c1ccc(-c2nc(NCc3cccnc3)c3oc4ccccc4c3n2)cc1 | 31 µM (active)
Oc1ccccc1-c1cc(-c2cccc(F)c2)n[nH]1 | 4.81 µM (active)
